- target_under_test: 5-hydroxytryptamine receptor 2A (Homo sapiens)
- run_description: 5-hydroxytryptamine receptor 2A (HTR2A) small molecule agonists, cell-based qHTS assay (AID 1963587); also: % is scaled to controls: 0 for no effect and ±100 for the full control effect; nearly all actives have a fitted effect of over 30% in size
- condition_description: HTR2A-CHO cells, calcium flux fluorescence, agonist mode; series mostly up to 76.8 µM
Results filed as inconclusive are left out. Active and inactive are the calls of the source. Calls follow the shape of the full dose curve.
reported_property: activation

Below, 10 compounds whose answers are already recorded.
Task: For CCc1cccc(CC)c1NC(=O)CN(CC(=O)O)CC(=O)O , what is its reported activation?
Result: inactive

Task: May I ask what activation has been recorded for C[C@]12C=CC(=O)C=C1[C@@H](F)C[C@@H]1[C@@H]2[C@@H](O)C[C@@]2(C)[C@H]1CC[C@]2(O)C(=O)CO ?
Result: inactive

Task: activation for CC(C)[N+](C)(C)CC(O)COc1cccc2ccccc12 (configuration not stated) ?
Result: inactive

Task: # query: activation of entry CC(C)Oc1ccccc1O
Result: inactive

Task: Form field: reported activation of CCCCC(CC)C(=O)OC(C)C (configuration not stated)
Result: inactive

Task: Please look up its activation: CC(C)Cc1nccs1
Result: inactive

Task: # activation lookup, item CCc1cccc(CC)c1N(COC)C(=O)CS(=O)(=O)O
Result: inactive

Task: What value of activation has been reported for the following compound? N#Cc1cc2ccccc2c2ccccc12
Result: inactive

Task: Fill blank: measured activation of the compound CCCCOCCOC(=O)COc1ccc(Cl)cc1Cl is ____.
Result: inactive

Task: Recorded activation for CNC(=O)c1c(I)c(NC(=O)CCCCC(=O)Nc2c(I)c(C(=O)O)c(I)c(C(=O)NC)c2I)c(I)c(C(=O)O)c1I , please?
Result: inactive

# map each compound to its activation
1. CC/C=C\CCOC(=O)c1ccccc1O
2. C=CCn1c(=O)n([C@@H]2O[C@H](CO)[C@@H](O)[C@H]2O)c2nc(N)[nH]c(=O)c21
3. O=S(O)O
4. Oc1cccc2cc3cccc(O)c3c(O)c12
5. CC(CN(C)C)C(C)(O)Cc1ccc(Cl)cc1 (configuration not stated)
6. O=C1OC(=O)c2cc([N+](=O)[O-])ccc21
7. CCOC(=O)C1=NN(c2ccc(Cl)cc2Cl)C(C)(C(=O)OCC)C1 (configuration not stated)

Result:
1: inactive; 2: inactive; 3: 4.7% [at 15.9 µM] (inactive); 4: inactive; 5: inactive; 6: inactive; 7: inactive

Each compound below has a recorded value; state its activation.
1. CNC(=O)N(c1ccccc1)c1ccccc1
2. C=CC(=O)OCC(O)COc1ccccc1 (configuration not stated)
3. O=C(O)c1ccccc1NCCc1ccccc1
4. CC(C)(C)C(=O)C(=O)O

Result:
inactive
inactive
inactive
inactive

Hello, I would appreciate it if you could give activation for each entry below.
1. CCc1cc(S(=O)(=O)O)c2cc(C(C)C)cccc1-2
2. Nc1ccc(C(=O)OCC(O)CO)cc1 (configuration not stated)
3. O=C(OCCCCCOC(=O)c1ccccc1)c1ccccc1
4. CN1CCN(C2=Nc3ccccc3Oc3ccc(Cl)cc32)CC1

Result:
1. inactive
2. inactive
3. inactive
4. inactive

Provide the reported activation of each entry below, same order.
1. CC(C)c1ccc2sc3ccccc3c(=O)c2c1
2. O=c1[nH]cccc1O

Result:
1. inactive
2. inactive
